Value source: paper PMC6210068

Protein target, amino acids: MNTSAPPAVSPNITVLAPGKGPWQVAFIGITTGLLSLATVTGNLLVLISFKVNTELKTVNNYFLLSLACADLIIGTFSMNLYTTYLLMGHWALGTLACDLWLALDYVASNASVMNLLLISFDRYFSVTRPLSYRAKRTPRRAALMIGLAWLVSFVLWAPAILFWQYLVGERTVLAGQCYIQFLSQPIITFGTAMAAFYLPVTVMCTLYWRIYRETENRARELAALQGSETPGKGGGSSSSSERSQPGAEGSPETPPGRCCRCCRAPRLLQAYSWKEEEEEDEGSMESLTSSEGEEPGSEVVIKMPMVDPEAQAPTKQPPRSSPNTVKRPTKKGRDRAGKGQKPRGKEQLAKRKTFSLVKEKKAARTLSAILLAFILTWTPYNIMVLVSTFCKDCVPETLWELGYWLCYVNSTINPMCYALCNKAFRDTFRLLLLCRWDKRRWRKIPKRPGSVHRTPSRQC

compound: O[C@@H]1[C@H](O)[C@@H]2C[C@@H]2[C@H]1n1ccc2c(NCCc3ccccc3)nc(C#Cc3ccccc3)nc21 [compound 55]
Ki: 6.97 µM

====

Entries and their pKi values follow.
- measured target: human α2C adrenergic receptor (Homo sapiens, UniProt P18825)
- Sequence (P18825 whole entry): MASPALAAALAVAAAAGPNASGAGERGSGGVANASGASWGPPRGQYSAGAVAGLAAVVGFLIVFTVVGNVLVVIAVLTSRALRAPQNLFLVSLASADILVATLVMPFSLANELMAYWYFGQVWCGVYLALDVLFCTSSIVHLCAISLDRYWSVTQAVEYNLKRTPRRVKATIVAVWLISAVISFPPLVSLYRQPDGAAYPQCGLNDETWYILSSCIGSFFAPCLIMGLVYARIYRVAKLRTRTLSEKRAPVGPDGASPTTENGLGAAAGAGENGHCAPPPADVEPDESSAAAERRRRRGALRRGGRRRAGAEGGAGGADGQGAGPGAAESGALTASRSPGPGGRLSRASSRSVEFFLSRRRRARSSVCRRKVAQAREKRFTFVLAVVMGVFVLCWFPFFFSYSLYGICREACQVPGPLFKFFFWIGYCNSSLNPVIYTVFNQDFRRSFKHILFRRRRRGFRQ
pKi: −log10 of the molar value.
reported property: pKi

molecule: CCOC(=O)[C@@]12C[C@@H]1[C@@H](n1ccc3c(NCCc4ccccc4)nc(C#Cc4ccccc4)nc31)[C@H](O)[C@@H]2O [compound 43]
measured target: human α2C adrenergic receptor (Homo sapiens, UniProt P18825)
measurement: 6.29

molecule: CNC(=O)[C@@]12C[C@@H]1[C@@H](n1cnc3c(NCc4cccc(Cl)c4)nc(C#Cc4ccccc4)nc31)[C@H](O)[C@@H]2O [compound 6]
measured target: human α2C adrenergic receptor (Homo sapiens, UniProt P18825)
measurement: 5.20

====

Each entry below lists one item and its recorded pKi value.
Protein target, amino acids: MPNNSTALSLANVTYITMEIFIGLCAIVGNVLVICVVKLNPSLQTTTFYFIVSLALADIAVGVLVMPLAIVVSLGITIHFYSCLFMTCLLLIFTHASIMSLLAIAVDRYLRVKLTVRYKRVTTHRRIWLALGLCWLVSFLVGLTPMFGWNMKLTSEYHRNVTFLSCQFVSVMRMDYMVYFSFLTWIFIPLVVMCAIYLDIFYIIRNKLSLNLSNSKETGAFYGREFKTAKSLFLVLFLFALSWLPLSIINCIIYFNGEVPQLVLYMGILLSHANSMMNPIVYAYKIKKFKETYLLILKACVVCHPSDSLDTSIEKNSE
pKi: −log10 of the molar value.

compound: CCOC(=O)[C@@]12C[C@@H]1[C@@H](n1ccc3c(NC)nc(I)nc31)[C@H](O)[C@@H]2O [compound 39]
pKi: 6.41

compound: CNC(=O)[C@@]12C[C@@H]1[C@@H](n1ccc3c(NC)ncnc31)[C@H](O)[C@@H]2O [compound 17]
pKi: 6.30

compound: CCOC(=O)[C@@]12C[C@@H]1[C@@H](n1ccc3c(NC4CC4)nc(C#Cc4ccccc4)nc31)[C@H](O)[C@@H]2O [compound 41]
pKi: 6.64

compound: CCOC(=O)[C@@]12C[C@@H]1[C@@H](n1ccc3c(NC)nc(C#Cc4ccccc4)nc31)[C@H](O)[C@@H]2O [compound 40]
pKi: 6.46

compound: CCOC(=O)[C@@]12C[C@@H]1[C@@H](n1ccc3c(NC)nc(C#Cc4ccc(Cl)s4)nc31)[C@H](O)[C@@H]2O [compound 28]
pKi: 6.35

compound: O[C@@H]1[C@H](O)[C@@H]2C[C@@H]2[C@H]1n1ccc2c(NCCc3ccccc3)nc(C#Cc3ccccc3)nc21 [compound 55]
pKi: 6.66

compound: CCOC(=O)[C@@]12C[C@@H]1[C@@H](n1ccc3c(NCC4CC4)nc(C#Cc4ccccc4)nc31)[C@H](O)[C@@H]2O [compound 42]
pKi: 6.10

====

Recorded measurements of Ki, one per entry
Protein target, amino acids: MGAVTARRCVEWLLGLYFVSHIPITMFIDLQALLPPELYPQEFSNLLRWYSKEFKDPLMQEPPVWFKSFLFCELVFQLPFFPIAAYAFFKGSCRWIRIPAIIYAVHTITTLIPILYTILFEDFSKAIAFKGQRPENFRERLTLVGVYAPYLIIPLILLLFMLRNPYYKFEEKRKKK
reported property: Ki (nM)

molecule: O[C@@H]1[C@H](O)[C@@H]2C[C@@H]2[C@H]1n1ccc2c(NC(C3CC3)C3CC3)nc(C#Cc3ccccc3)nc21
reported property: Ki
measurement: 670
//
molecule: O[C@@H]1[C@H](O)[C@@H]2C[C@@H]2[C@H]1n1cnc2c(NCCc3ccccc3)nc(C#Cc3ccccc3Cl)nc21
reported property: Ki
measurement: 1820
//
molecule: CCOC(=O)[C@@]12C[C@@H]1[C@@H](n1ccc3c(NCC4CC4)nc(C#Cc4ccccc4)nc31)[C@H](O)[C@@H]2O
reported property: Ki
measurement: 1110
//
molecule: O[C@@H]1[C@H](O)[C@@H]2C[C@@H]2[C@H]1n1ccc2c(NC(C3CC3)C3CC3)nc(C#Cc3ccc(Br)s3)nc21
reported property: Ki
measurement: 6920
//
molecule: CCOC(=O)[C@@]12C[C@@H]1[C@@H](n1cnc3c(NC)cc(C#Cc4ccc(Cl)s4)nc31)[C@H](O)[C@@H]2O
reported property: Ki
measurement: 1760
//
molecule: CNC(=O)[C@@]12C[C@@H]1[C@@H](n1cnc3c(NC4CC4c4ccccc4)nc(C#Cc4ccccc4)nc31)[C@H](O)[C@@H]2O (mixture of isomers)
reported property: Ki
measurement: 2510

====

- measured target: UniProt Q01959
- Sequence (Q01959 whole entry): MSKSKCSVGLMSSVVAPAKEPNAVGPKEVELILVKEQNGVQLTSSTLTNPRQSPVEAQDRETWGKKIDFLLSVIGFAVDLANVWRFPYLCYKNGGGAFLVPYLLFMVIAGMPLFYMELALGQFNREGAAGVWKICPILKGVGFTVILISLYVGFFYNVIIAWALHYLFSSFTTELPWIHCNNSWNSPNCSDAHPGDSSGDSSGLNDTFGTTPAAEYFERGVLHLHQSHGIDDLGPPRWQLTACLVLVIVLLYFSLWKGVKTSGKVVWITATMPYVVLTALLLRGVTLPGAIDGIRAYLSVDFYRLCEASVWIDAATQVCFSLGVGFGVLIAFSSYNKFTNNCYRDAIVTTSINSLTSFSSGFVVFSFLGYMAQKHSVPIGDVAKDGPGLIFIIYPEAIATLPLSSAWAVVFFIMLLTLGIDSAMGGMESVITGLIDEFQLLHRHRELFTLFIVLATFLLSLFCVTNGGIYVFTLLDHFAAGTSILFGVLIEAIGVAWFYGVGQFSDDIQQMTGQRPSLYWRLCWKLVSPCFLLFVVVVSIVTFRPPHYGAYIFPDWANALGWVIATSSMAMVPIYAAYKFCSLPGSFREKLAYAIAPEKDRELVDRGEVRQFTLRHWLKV
- procedure summary: Radioligand binding at DAT
- conditions: 10 μM; [3H]WIN35428; negative = enhanced radioligand binding

compound: O[C@@H]1[C@H](O)[C@@H]2C[C@@H]2[C@H]1n1cnc2c(NCCc3ccccc3)nc(C#Cc3ccccc3Cl)nc21 [compound 52]
DAT, inhibition, % of control at 10 μM: 7%
--
compound: CCOC(=O)[C@@]12C[C@@H]1[C@@H](n1ccc3c(NCCc4ccccc4)nc(C#Cc4ccccc4)nc31)[C@@H]1OC(C)(C)O[C@@H]12 [compound 82]
DAT, inhibition, % of control at 10 μM: –24%
--
compound: O[C@@H]1[C@H](O)[C@@H]2C[C@@H]2[C@H]1n1cnc2c(NCc3cccc(Cl)c3)nc(C#Cc3ccccc3)nc21 [compound 47]
DAT, inhibition, % of control at 10 μM: 37%
--
compound: CCNc1nc(C#Cc2ccccc2)nc2c1ncn2[C@H]1[C@H](O)[C@H](O)[C@@H]2C[C@@H]21 [compound 50]
DAT, inhibition, % of control at 10 μM: –154%
--
compound: O[C@@H]1[C@H](O)[C@@H]2C[C@@H]2[C@H]1n1cnc2c(NCCc3ccccc3)nc(C#Cc3ccccc3)nc21 [compound 51]
DAT, inhibition, % of control at 10 μM: 24%
--
compound: CNC(=O)[C@@]12C[C@@H]1[C@@H](n1cnc3c(NCc4cccc(Cl)c4)nc(C#Cc4ccccc4)nc31)[C@H](O)[C@@H]2O [compound 6]
DAT, inhibition, % of control at 10 μM: 7%
--
compound: CCCOC(=O)[C@@]12C[C@@H]1[C@@H](n1cnc3c(NC)nc(C#Cc4ccc(Cl)s4)nc31)[C@H](O)[C@@H]2O [compound 30]
DAT, inhibition, % of control at 10 μM: –426%
--
compound: CCOC(=O)[C@@]12C[C@@H]1[C@@H](n1ccc3c(NC)nc(C#Cc4ccccc4)nc31)[C@H](O)[C@@H]2O [compound 40]
DAT, inhibition, % of control at 10 μM: –66%
--
compound: CNC(=O)[C@@]12C[C@@H]1[C@@H](n1cnc3c(NCCC(F)(F)F)nc(C#Cc4ccc(Cl)s4)nc31)[C@H](O)[C@@H]2O [compound 19]
DAT, inhibition, % of control at 10 μM: 15%
--
compound: CCOC(=O)[C@@]12C[C@@H]1[C@@H](n1ccc3c(NCCc4ccccc4)nc(C#Cc4ccccc4)nc31)[C@H](O)[C@@H]2O [compound 43]
DAT, inhibition, % of control at 10 μM: 21%
--
compound: CNC(=O)[C@@]12C[C@@H]1[C@@H](n1cnc3c(NC)nc(C#Cc4ccc(Br)s4)nc31)[C@H](O)[C@@H]2O [compound 15]
DAT, inhibition, % of control at 10 μM: –235%
--
compound: CNC(=O)[C@H]1O[C@@H](n2cnc3c(NC)nc(C#Cc4ccc(Cl)s4)nc32)[C@H](O)[C@@H]1O [compound 45]
DAT, inhibition, % of control at 10 μM: –321%
--
compound: CNc1nc(C#Cc2ccc(Cl)s2)nc2c1ncn2[C@H]1[C@H](O)[C@H](O)[C@]2(C(=O)OC)C[C@H]12 [compound 22]
DAT, inhibition, % of control at 10 μM: –352%
--
compound: CNC(=O)[C@@]12C[C@@H]1[C@@H](n1cnc3c(NC)cc(C#Cc4ccc(Cl)s4)nc31)[C@H](O)[C@@H]2O [compound 16]
DAT, inhibition, % of control at 10 μM: 1%
--
compound: CNc1nc(C#Cc2ccc(Br)s2)nc2c1ncn2[C@H]1[C@H](O)[C@H](O)[C@]2(C(=O)OC)C[C@H]12 [compound 23]
DAT, inhibition, % of control at 10 μM: –370%
--
compound: CNc1nc(C#Cc2ccc(Cl)s2)nc2c1ncn2[C@H]1[C@H](O)[C@H](O)[C@]2(C(=O)OCc3ccccc3)C[C@H]12 [compound 35]
DAT, inhibition, % of control at 10 μM: <20%
--
compound: CNc1nc(C#Cc2ccc(Cl)s2)nc2c1ncn2[C@H]1[C@H](O)[C@H](O)[C@]2(C(=O)OCCCc3ccccc3)C[C@H]12 [compound 37]
DAT, inhibition, % of control at 10 μM: <20%
--
compound: CCOC(=O)[C@@]12C[C@@H]1[C@@H](n1ccc3c(NC4CC4)nc(C#Cc4ccccc4)nc31)[C@H](O)[C@@H]2O [compound 41]
DAT, inhibition, % of control at 10 μM: –312%
--
compound: CNC(=O)[C@@]12C[C@@H]1[C@@H](n1cnc3c(NCc4cccc(Cl)c4)nc(C#Cc4ccccc4Cl)nc31)[C@H](O)[C@@H]2O [compound 8]
DAT, inhibition, % of control at 10 μM: 50%
--
compound: CNC(=O)[C@@]12C[C@@H]1[C@@H](n1ccc3c(NC)ncnc31)[C@H](O)[C@@H]2O [compound 17]
DAT, inhibition, % of control at 10 μM: –14%
--
compound: CCCCC(=O)[C@@]12C[C@@H]1[C@@H](n1ccc3c(NC)nc(C#Cc4ccc(Cl)s4)nc31)[C@H](O)[C@@H]2O [compound 44]
DAT, inhibition, % of control at 10 μM: –9%
--
compound: CCOC(=O)[C@@]12C[C@@H]1[C@@H](n1ccc3c(NC)nc(I)nc31)[C@@H]1OC(C)(C)O[C@@H]12 [compound 73]
DAT, inhibition, % of control at 10 μM: –39%
--
compound: CCOC(=O)[C@@]12C[C@@H]1[C@@H](n1cnc3c(NC)cc(C#Cc4ccc(Cl)s4)nc31)[C@H](O)[C@@H]2O [compound 26]
DAT, inhibition, % of control at 10 μM: <10%
--
compound: CNC(=O)[C@@]12C[C@@H]1[C@@H](n1cnc3c(NC)nc(C#Cc4ccccc4Cl)nc31)[C@H](O)[C@@H]2O [compound 13]
DAT, inhibition, % of control at 10 μM: –484%
